# targetOfAssay: Cannabinoid receptor 2 (Homo sapiens, UniProt P34972)
# Sequence (P34972 whole entry): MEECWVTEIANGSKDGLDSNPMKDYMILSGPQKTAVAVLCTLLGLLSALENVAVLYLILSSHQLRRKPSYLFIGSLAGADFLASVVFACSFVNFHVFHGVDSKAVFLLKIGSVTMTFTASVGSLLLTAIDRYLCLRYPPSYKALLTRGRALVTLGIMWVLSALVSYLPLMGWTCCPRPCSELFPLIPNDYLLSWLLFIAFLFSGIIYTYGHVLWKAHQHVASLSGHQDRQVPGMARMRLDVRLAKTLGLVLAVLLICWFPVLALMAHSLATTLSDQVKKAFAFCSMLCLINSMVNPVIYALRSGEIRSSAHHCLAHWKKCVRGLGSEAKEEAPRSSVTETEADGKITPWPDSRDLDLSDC
# testProtocol: radioligand binding [3H]CP55,940, ternary complex allosteric model
measuredParameter: Kd (nM)

                                     binder  unitabbreviation  experimentalvalue
0  RVDPVNFKLLSH ([3H]CP55,940 present) [Pepcan-12 (RVD-hemopressin)]                nM                 58
